assay.text: Thermogravimetric analysis
Format: physicochemical
condition: TGA

# compound, Decomposition Temperature
data = [
    ("CCCCCCCCO[C@@H]1OC[C@@H](O)[C@H](O)[C@H]1O [Compound 9b, Octyl β-D-xylopyranoside]", "267.1 ± 9.15 °C"),
    ("CCCCCCCCCCO[C@@H]1OC[C@@H](O)[C@H](O)[C@H]1O [Compound 9c, Decyl β-D-xylopyranoside]", "277.2 ± 11.5 °C"),
    ("CCCCCCO[C@@H]1OC[C@@H](O)[C@H](O)[C@H]1O [Compound 9a, Hexyl β-D-xylopyranoside]", "262.8 ± 4.34 °C"),
    ("CCCCCCCCCCCCO[C@@H]1OC[C@@H](O)[C@H](O)[C@H]1O [Compound 9d, Dodecyl β-D-xylopyranoside]", "290.4 ± 10.5 °C"),
    ("CCCCCCCCCCCCCCO[C@@H]1OC[C@@H](O)[C@H](O)[C@H]1O [Compound 9e, Tetradecyl β-D-xylopyranoside]", "294.8 ± 7.15 °C"),
]

###

Recorded Number of water molecules, one value per entry.
assay.text: Thermogravimetric analysis
Type: physicochemical
condition: TGA, from weight loss

# compound, Number of water molecules
rows = [
    ("CCCCCCCCCCCCO[C@@H]1OC[C@@H](O)[C@H](O)[C@H]1O [Compound 9d, Dodecyl β-D-xylopyranoside]", 0.3),
    ("CCCCCCCCO[C@@H]1OC[C@@H](O)[C@H](O)[C@H]1O [Compound 9b, Octyl β-D-xylopyranoside]", 0.5),
    ("O[C@@H]1[C@@H](O)[C@H](OCCC(F)(F)C(F)(F)C(F)(F)C(F)(F)C(F)(F)C(F)(F)F)OC[C@H]1O", 0.9),
    ("CCCCCCO[C@@H]1OC[C@@H](O)[C@H](O)[C@H]1O [Compound 9a, Hexyl β-D-xylopyranoside]", 0.4),
    ("CCCCCCCCCCCCCCO[C@@H]1OC[C@@H](O)[C@H](O)[C@H]1O [Compound 9e, Tetradecyl β-D-xylopyranoside]", 0.5),
    ("CCCCCCCCCCO[C@@H]1OC[C@@H](O)[C@H](O)[C@H]1O [Compound 9c, Decyl β-D-xylopyranoside]", 0.5),
    ("CCCCCCCCCCCCCCCCO[C@@H]1OC[C@@H](O)[C@H](O)[C@H]1O [Compound 9f, Hexadecyl β-D-xylopyranoside]", 0.3),
]

###

assay.text: Thermogravimetric analysis
Type: physicochemical
condition: TGA, solvent loss
Recorded Percent weight loss, one value per entry.

# compound, Percent weight loss [%]
data = [
    ("CCCCCCCCO[C@@H]1OC[C@@H](O)[C@H](O)[C@H]1O [Compound 9b, Octyl β-D-xylopyranoside]", 2.35),
    ("CCCCCCO[C@@H]1OC[C@@H](O)[C@H](O)[C@H]1O [Compound 9a, Hexyl β-D-xylopyranoside]", 2.50),
    ("CCCCCCCCCCCCCCO[C@@H]1OC[C@@H](O)[C@H](O)[C@H]1O [Compound 9e, Tetradecyl β-D-xylopyranoside]", 1.87),
    ("CCCCCCCCCCO[C@@H]1OC[C@@H](O)[C@H](O)[C@H]1O [Compound 9c, Decyl β-D-xylopyranoside]", 2.69),
    ("CCCCCCCCCCCCCCCCO[C@@H]1OC[C@@H](O)[C@H](O)[C@H]1O [Compound 9f, Hexadecyl β-D-xylopyranoside]", 1.24),
    ("CCCCCCCCCCCCO[C@@H]1OC[C@@H](O)[C@H](O)[C@H]1O [Compound 9d, Dodecyl β-D-xylopyranoside]", 1.56),
    ("O[C@@H]1[C@@H](O)[C@H](OCCC(F)(F)C(F)(F)C(F)(F)C(F)(F)C(F)(F)C(F)(F)F)OC[C@H]1O", 2.64),
]
